B1: TPR t1 (parent)
chain: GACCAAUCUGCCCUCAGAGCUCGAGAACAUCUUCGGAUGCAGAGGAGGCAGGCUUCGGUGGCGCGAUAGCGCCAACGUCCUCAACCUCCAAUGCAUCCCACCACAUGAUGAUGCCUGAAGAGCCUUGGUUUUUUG

Variants of: B1
Assay: polymerase ribozyme fitness, log enrichment relative to wild type (log ratio); higher = more active; in vitro selection for triplet polymerase activity

>  <mutation-key>
G58A C101G

>  <polymerase ribozyme fitness (log ratio)>
-1.94

$$$$
>  <mutation-key>
A2U C22G U33C C34A

>  <polymerase ribozyme fitness (log ratio)>
-5.51

$$$$
>  <mutation-key>
U9C C11U G47C U96G

>  <polymerase ribozyme fitness (log ratio)>
-3.05

$$$$
>  <mutation-key>
C13G C85A U112C

>  <polymerase ribozyme fitness (log ratio)>
-1.28

$$$$
>  <mutation-key>
C4G C101A

>  <polymerase ribozyme fitness (log ratio)>
-2.61

$$$$
>  <mutation-key>
C28U G71C C124U

>  <polymerase ribozyme fitness (log ratio)>
-2.51

$$$$
>  <mutation-key>
U14C G61A G110C

>  <polymerase ribozyme fitness (log ratio)>
-5.14

$$$$
>  <mutation-key>
G10U C20A A50C C102A C114U

>  <polymerase ribozyme fitness (log ratio)>
-6.03

$$$$
>  <mutation-key>
C72U C94G

>  <polymerase ribozyme fitness (log ratio)>
-1.95

$$$$
>  <mutation-key>
C12G G19A G93U U106A A111G C115A

>  <polymerase ribozyme fitness (log ratio)>
-6.62

$$$$
>  <mutation-key>
G51U U54C U59G

>  <polymerase ribozyme fitness (log ratio)>
-3.68

$$$$
>  <mutation-key>
C15U A43C C70A C123U C124A

>  <polymerase ribozyme fitness (log ratio)>
-4.89

$$$$
>  <mutation-key>
C28A

>  <polymerase ribozyme fitness (log ratio)>
-3.83

$$$$
>  <mutation-key>
C11U A27U A103U G120C G122U

>  <polymerase ribozyme fitness (log ratio)>
-5.67

$$$$
>  <mutation-key>
C34A A46G U54G

>  <polymerase ribozyme fitness (log ratio)>
-2.69

$$$$
>  <mutation-key>
G60A C86U

>  <polymerase ribozyme fitness (log ratio)>
-0.149

$$$$
>  <mutation-key>
C11U C72U A83U C101G

>  <polymerase ribozyme fitness (log ratio)>
-1.79

$$$$
>  <mutation-key>
C102A G113A

>  <polymerase ribozyme fitness (log ratio)>
-2.68

$$$$
>  <mutation-key>
G51A A68C C70G C102U G110A

>  <polymerase ribozyme fitness (log ratio)>
-5.98

$$$$
>  <mutation-key>
C13G C40A C123U

>  <polymerase ribozyme fitness (log ratio)>
-0.0334

$$$$
>  <mutation-key>
U9G C56U C114A C115G

>  <polymerase ribozyme fitness (log ratio)>
-5.74

$$$$
>  <mutation-key>
G113A U131A

>  <polymerase ribozyme fitness (log ratio)>
-0.84

$$$$
>  <mutation-key>
A2G C4G G47A G48A C123A

>  <polymerase ribozyme fitness (log ratio)>
-3.22

$$$$
>  <mutation-key>
G10U G63U

>  <polymerase ribozyme fitness (log ratio)>
-1.31

$$$$
>  <mutation-key>
G61C C79A C80U

>  <polymerase ribozyme fitness (log ratio)>
-4.17

$$$$
>  <mutation-key>
C79U C89A G117U C123G

>  <polymerase ribozyme fitness (log ratio)>
-1.41

$$$$
>  <mutation-key>
C64A U96G C123U

>  <polymerase ribozyme fitness (log ratio)>
-6.2

$$$$
>  <mutation-key>
C3G

>  <polymerase ribozyme fitness (log ratio)>
-1.58

$$$$
>  <mutation-key>
C11G G44A A68G

>  <polymerase ribozyme fitness (log ratio)>
-4.14

$$$$
>  <mutation-key>
G42A G48A G69A

>  <polymerase ribozyme fitness (log ratio)>
-6.28

$$$$
>  <mutation-key>
C82U U87A

>  <polymerase ribozyme fitness (log ratio)>
-0.441

$$$$
>  <mutation-key>
G45U U59A C101U

>  <polymerase ribozyme fitness (log ratio)>
-0.987

$$$$
>  <mutation-key>
C11U C56A C123U

>  <polymerase ribozyme fitness (log ratio)>
1.37

$$$$
>  <mutation-key>
G47C C56U U106A C123A

>  <polymerase ribozyme fitness (log ratio)>
-1.35

$$$$
>  <mutation-key>
U9G C40A G69A C76U C114A

>  <polymerase ribozyme fitness (log ratio)>
-6.98

$$$$
>  <mutation-key>
U9G C94A

>  <polymerase ribozyme fitness (log ratio)>
-0.976

$$$$
>  <mutation-key>
C34G G47U U55G G61C G63C C80U

>  <polymerase ribozyme fitness (log ratio)>
-7.69

$$$$
>  <mutation-key>
C56U U78G U106G G110A U129A U131C

>  <polymerase ribozyme fitness (log ratio)>
-4.97

$$$$
>  <mutation-key>
G45A C80U C115A A121G

>  <polymerase ribozyme fitness (log ratio)>
0.603

$$$$
>  <mutation-key>
G10A U112G

>  <polymerase ribozyme fitness (log ratio)>
1.07

$$$$
>  <mutation-key>
C31G G39A G107C U133G

>  <polymerase ribozyme fitness (log ratio)>
-2.1

$$$$
>  <mutation-key>
U7C C62A G110A A119C

>  <polymerase ribozyme fitness (log ratio)>
-4.23

$$$$
>  <mutation-key>
C64U U133G

>  <polymerase ribozyme fitness (log ratio)>
-0.439

$$$$
>  <mutation-key>
G45U C56A

>  <polymerase ribozyme fitness (log ratio)>
-2.01

$$$$
>  <mutation-key>
G52U C73G

>  <polymerase ribozyme fitness (log ratio)>
-1.11

$$$$
>  <mutation-key>
C62A G120A

>  <polymerase ribozyme fitness (log ratio)>
-0.339

$$$$
>  <mutation-key>
G47U C89U G122A

>  <polymerase ribozyme fitness (log ratio)>
-4.51

$$$$
>  <mutation-key>
U21G G42U U112A

>  <polymerase ribozyme fitness (log ratio)>
0.673

$$$$
>  <mutation-key>
A37U G71U

>  <polymerase ribozyme fitness (log ratio)>
-0.54

$$$$
>  <mutation-key>
A5G G45A C104A

>  <polymerase ribozyme fitness (log ratio)>
-2.92

$$$$
>  <mutation-key>
C12U C40U

>  <polymerase ribozyme fitness (log ratio)>
-0.543

$$$$
>  <mutation-key>
C8U C115U G117A

>  <polymerase ribozyme fitness (log ratio)>
-0.753

$$$$
>  <mutation-key>
C53U C80U U81C G120A

>  <polymerase ribozyme fitness (log ratio)>
-3.73

$$$$
>  <mutation-key>
G57C G71U G113C

>  <polymerase ribozyme fitness (log ratio)>
-3.12

$$$$
>  <mutation-key>
A2C G128U

>  <polymerase ribozyme fitness (log ratio)>
-2.55

$$$$
>  <mutation-key>
G39U U59A C98U A121G

>  <polymerase ribozyme fitness (log ratio)>
0.547

$$$$
>  <mutation-key>
C11A A37G G60U C101A U131G

>  <polymerase ribozyme fitness (log ratio)>
-2.57

$$$$
>  <mutation-key>
U7G G10A G19U G113A

>  <polymerase ribozyme fitness (log ratio)>
-1.32

$$$$
>  <mutation-key>
G47A U87G

>  <polymerase ribozyme fitness (log ratio)>
-0.336

$$$$
>  <mutation-key>
A66C C82A

>  <polymerase ribozyme fitness (log ratio)>
-1.46

$$$$
>  <mutation-key>
C4G A90U A100C C124U U132C

>  <polymerase ribozyme fitness (log ratio)>
-4.88

$$$$
>  <mutation-key>
C3U G17U C64U

>  <polymerase ribozyme fitness (log ratio)>
-3.03

$$$$
>  <mutation-key>
A6C U78A C79A

>  <polymerase ribozyme fitness (log ratio)>
-3.63

$$$$
>  <mutation-key>
G42U U112A

>  <polymerase ribozyme fitness (log ratio)>
-0.57

$$$$
>  <mutation-key>
G45U G61A C88U A90C G113A

>  <polymerase ribozyme fitness (log ratio)>
-3

$$$$
>  <mutation-key>
C72G A121C

>  <polymerase ribozyme fitness (log ratio)>
1.48

$$$$
>  <mutation-key>
G45U C64U C79G C114U

>  <polymerase ribozyme fitness (log ratio)>
-5.29

$$$$
>  <mutation-key>
C8U G52A A68G U81A G120U

>  <polymerase ribozyme fitness (log ratio)>
-4.33

$$$$
>  <mutation-key>
C40G C56U C70A G77A C88U A103U A119G

>  <polymerase ribozyme fitness (log ratio)>
-7.04

$$$$
>  <mutation-key>
A18G C31G C88U C114G

>  <polymerase ribozyme fitness (log ratio)>
-5.82

$$$$
>  <mutation-key>
C31U A119G

>  <polymerase ribozyme fitness (log ratio)>
-3.71

$$$$
>  <mutation-key>
A41C C56U C94A

>  <polymerase ribozyme fitness (log ratio)>
-3

$$$$
>  <mutation-key>
U7C G45U G110C

>  <polymerase ribozyme fitness (log ratio)>
-5.16

$$$$
>  <mutation-key>
C62G C101U

>  <polymerase ribozyme fitness (log ratio)>
-1.28

$$$$
>  <mutation-key>
A108C

>  <polymerase ribozyme fitness (log ratio)>
-3.71

$$$$
>  <mutation-key>
A5U C86A

>  <polymerase ribozyme fitness (log ratio)>
-0.495

$$$$
>  <mutation-key>
U7C C8G C62U G93U A95C

>  <polymerase ribozyme fitness (log ratio)>
-0.906

$$$$
>  <mutation-key>
C98G C124U

>  <polymerase ribozyme fitness (log ratio)>
-5.51

$$$$
>  <mutation-key>
A41U G45C

>  <polymerase ribozyme fitness (log ratio)>
-2.41

$$$$
>  <mutation-key>
U7G A41G C53A G61U C79U A90U A111C

>  <polymerase ribozyme fitness (log ratio)>
-3.04

$$$$
